# targetEntity: T1, human GPRC5D (human, UniProt Q9NZD1 1-345)
# T1 construct: on transfected HEK293/RBL cells or endogenous on myeloma cells (H929, MM1R, OPM2, LP1, JIM3, patient plasma cells); also called G protein-coupled receptor class C group 5 member D; hGPRC5D
# T1 sequence (Q9NZD1 whole entry): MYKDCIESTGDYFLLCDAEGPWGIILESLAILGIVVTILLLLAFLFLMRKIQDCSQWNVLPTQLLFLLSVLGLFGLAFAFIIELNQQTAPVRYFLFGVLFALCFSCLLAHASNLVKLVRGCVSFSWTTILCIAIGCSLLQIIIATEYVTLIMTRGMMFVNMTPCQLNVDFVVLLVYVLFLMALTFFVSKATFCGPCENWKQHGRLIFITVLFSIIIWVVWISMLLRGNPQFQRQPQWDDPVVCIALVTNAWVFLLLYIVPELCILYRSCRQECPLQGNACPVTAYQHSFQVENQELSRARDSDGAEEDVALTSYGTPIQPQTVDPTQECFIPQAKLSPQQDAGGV
# assayMethodText: FACS, human GPRC5D cells
Would you kindly list MFI for each of these binders?

Field MFI (entry GC5B478 (antibody, V domains shown, GC5B164 PTM variant; also called GC5H271) VH: EVQLVQSGAEVKKPGESLKISCKGSGYSFTSYFIGWVRQMPGKGLEWMGIIYPGSSDTRYSPSFQGQVTISADKSISTAYLQWSSLKASDTAMYYCARVYSFGGRHKALFDYWGQGTLVTVSS VL: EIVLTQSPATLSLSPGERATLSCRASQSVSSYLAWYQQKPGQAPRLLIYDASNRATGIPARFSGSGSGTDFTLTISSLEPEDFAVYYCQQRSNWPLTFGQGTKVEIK ) reads > 10000 mfi

Field MFI (entry GC5B504 (antibody, V domains shown, GC5B164 PTM variant; also called GC5H245) VH: EVQLVQSGAEVKKPGESLKISCKGSGYSFTSYWIGWVRQMPGKGLEWMGIIYPGESDTRYSPSFQGQVTISADKSISTAYLQWSSLKASDTAMYYCARVYSFGGRHKALFDYWGQGTLVTVSS VL: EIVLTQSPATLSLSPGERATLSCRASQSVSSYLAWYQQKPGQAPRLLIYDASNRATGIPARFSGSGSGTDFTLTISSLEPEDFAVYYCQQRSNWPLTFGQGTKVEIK ) reads > 10000 mfi

Field MFI (entry GC5B474 (antibody, V domains shown, GC5B164 PTM variant; also called GC5H275) VH: EVQLVQSGAEVKKPGESLKISCKGSGYSFTSYGIGWVRQMPGKGLEWMGIIYPGASDTRYSPSFQGQVTISADKSISTAYLQWSSLKASDTAMYYCARVYSFGGRHKALFDYWGQGTLVTVSS VL: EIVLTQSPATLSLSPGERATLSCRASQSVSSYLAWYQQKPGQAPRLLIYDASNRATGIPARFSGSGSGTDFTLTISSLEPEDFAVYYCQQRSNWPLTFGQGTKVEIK ) reads 1000 to 10000 mfi

Field MFI (entry GC5B483 (antibody, IgG4, V domains shown, GC5B164 PTM variant D55K, W33F; IgG4 S228P, L234A, L235A; also called GC5H266) VH: EVQLVQSGAEVKKPGESLKISCKGSGYSFTSYFIGWVRQMPGKGLEWMGIIYPGKSDTRYSPSFQGQVTISADKSISTAYLQWSSLKASDTAMYYCARVYSFGGRHKALFDYWGQGTLVTVSS VL: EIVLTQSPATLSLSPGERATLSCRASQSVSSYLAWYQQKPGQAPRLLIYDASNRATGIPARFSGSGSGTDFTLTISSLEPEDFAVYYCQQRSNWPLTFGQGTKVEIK ) reads > 10000 mfi

Field MFI (entry GC5B484 (antibody, V domains shown, GC5B164 PTM variant; also called GC5H265) VH: EVQLVQSGAEVKKPGESLKISCKGSGYSFTSYGIGWVRQMPGKGLEWMGIIYPGKSDTRYSPSFQGQVTISADKSISTAYLQWSSLKASDTAMYYCARVYSFGGRHKALFDYWGQGTLVTVSS VL: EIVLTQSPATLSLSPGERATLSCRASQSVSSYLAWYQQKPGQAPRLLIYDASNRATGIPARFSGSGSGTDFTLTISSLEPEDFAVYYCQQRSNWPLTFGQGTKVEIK ) reads 1000 to 10000 mfi
